# ASSAY SYSTEM: human kinase Mps-1 (Homo sapiens)
# Construct: N-terminally GST-tagged human full length recombinant Mps-1 kinase; GST (N)
# Sequence (P33981 whole entry): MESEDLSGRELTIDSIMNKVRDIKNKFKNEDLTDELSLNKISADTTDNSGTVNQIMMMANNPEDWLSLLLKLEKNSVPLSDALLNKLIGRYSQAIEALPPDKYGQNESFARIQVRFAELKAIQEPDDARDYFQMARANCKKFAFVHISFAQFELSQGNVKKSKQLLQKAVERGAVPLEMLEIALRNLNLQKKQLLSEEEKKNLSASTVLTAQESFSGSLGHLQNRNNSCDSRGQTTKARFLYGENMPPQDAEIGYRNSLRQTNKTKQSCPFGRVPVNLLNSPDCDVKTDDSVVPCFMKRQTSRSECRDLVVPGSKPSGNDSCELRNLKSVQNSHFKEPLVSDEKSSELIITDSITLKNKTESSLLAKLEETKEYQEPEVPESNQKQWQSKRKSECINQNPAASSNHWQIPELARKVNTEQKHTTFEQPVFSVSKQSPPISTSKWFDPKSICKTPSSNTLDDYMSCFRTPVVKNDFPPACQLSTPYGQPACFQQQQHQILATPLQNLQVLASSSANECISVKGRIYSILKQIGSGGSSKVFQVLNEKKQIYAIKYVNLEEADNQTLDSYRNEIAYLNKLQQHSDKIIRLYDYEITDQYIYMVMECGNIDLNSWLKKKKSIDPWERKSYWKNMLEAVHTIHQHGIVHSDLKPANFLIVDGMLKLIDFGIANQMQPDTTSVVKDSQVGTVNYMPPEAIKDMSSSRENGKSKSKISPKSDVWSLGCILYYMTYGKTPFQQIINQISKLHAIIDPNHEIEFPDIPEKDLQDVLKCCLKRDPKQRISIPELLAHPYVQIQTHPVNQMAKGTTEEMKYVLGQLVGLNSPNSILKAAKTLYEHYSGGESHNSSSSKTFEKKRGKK
# TEST: Mps-1 kinase assay (TR-FRET)
# REPORTED CONDITIONS: Mps-1 TR-FRET kinase assay; avg; read-out: Mps1 avg (IC50 [mol/l])
Each record here notes measured IC50.

# example entries with known answers
| COMPOUND | IC50 |
| --- | --- |
| Cc1nsc(Nc2cncc(C(F)(F)F)n2)c1C(=O)Nc1ccc(C(=O)N2CCN(CC(F)(F)F)CC2)cc1 | > 20 µM |
| Cc1nsc(Nc2cnc(C(F)(F)F)cn2)c1C(=O)Nc1ccc(OCC2CCN(CC(F)(F)F)C2)nc1 (centres unmarked) | ≥ 20 µM |
| Cc1nsc(Nc2cc(C#N)ccn2)c1C(=O)Nc1ccc(Oc2cccc(C(F)(F)F)c2)nc1 | > 20 µM |
| Cc1nsc(Nc2cc(C#N)ccn2)c1C(=O)Nc1ccc(OCCCNC(=O)OC(C)(C)C)nc1 | ≥ 20 µM |

Which IC50 value is on record for Cc1nsc(Nc2cnc(C(F)(F)F)cn2)c1C(=O)Nc1ccc(OCCCN(C)CC(F)(F)F)nc1 ?
≥ 20 µM

Which IC50 is reported for this compound? Cc1nsc(Nc2cnc(C(F)(F)F)cn2)c1C(=O)Nc1ccc(C(=O)NC2CN(CC(F)F)C2)cc1
> 20 µM
